Could you please report measured koff for the items listed next?
target-under-test: T1, HER2 immobilised on a Biacore chip (UniProt P04626 23-652, limits assumed)
T1 construct: also called immobilised HER2 target antigen (Biacore SPR); HER2 chip
assay-details: Biacore SPR, HER2 amine-coupled to the chip
Numbers only, in s⁻¹.

Worked examples follow.
• scFv (TCT1067)-Auristatin-F-C5 DAR 5.65 (scFv, Auristatin F-C5 on lysine residues; DAR 6.31 by AAA, 4.98 by MS, average 5.65, also called TCT1067-AF-C5 ADC2) scFv: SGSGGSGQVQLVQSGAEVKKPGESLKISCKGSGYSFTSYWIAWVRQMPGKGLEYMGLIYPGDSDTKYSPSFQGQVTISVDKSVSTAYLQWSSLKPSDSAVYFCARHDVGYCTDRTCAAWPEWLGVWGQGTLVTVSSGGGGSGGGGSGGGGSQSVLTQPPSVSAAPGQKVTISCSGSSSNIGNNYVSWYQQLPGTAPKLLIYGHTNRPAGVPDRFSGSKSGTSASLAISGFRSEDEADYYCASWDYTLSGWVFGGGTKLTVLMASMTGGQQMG = 1.35e-05
• scFv (TCT)-MMAF-C5 ADC 2 (DAR 6.8) (scFv, MMAF-C5 on lysine residues; DAR 8.0 by AAA, 5.5 by MS, average 6.8, also called scFv (TCT)-MMAF-C5 DAR 6.8; scFv (TCT)-MMAF DAR 8) scFv: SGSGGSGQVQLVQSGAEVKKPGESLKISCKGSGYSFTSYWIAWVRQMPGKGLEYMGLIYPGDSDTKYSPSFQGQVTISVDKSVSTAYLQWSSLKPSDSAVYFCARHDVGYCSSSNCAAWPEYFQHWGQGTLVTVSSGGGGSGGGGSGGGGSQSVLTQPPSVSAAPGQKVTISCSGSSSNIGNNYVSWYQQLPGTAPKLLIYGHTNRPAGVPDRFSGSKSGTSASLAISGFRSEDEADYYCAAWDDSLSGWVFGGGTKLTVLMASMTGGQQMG = 0.0042
• scFv (TCT1067)-DM1-dPEG12 DAR 7 (scFv, Maytansine DM1-dPEG12 on lysine residues, 6-8 additions, average DAR 7 by LC-MS, also called TCT1067-Maytansine-PEG(12) DM1 ADC 1; compound 124) scFv: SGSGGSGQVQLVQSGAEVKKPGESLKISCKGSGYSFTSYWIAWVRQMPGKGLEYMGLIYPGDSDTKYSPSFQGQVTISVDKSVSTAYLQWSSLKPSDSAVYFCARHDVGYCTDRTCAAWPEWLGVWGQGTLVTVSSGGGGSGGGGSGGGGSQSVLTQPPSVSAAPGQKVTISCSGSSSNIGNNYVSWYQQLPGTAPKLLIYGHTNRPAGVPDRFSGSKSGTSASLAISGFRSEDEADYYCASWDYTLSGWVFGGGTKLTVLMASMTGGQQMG = 2.7e-05

--- query ---
Return value of koff for input scFv (TCT1067)-MMAE-PAB-Cit-Val-dPEG9 conjugate, DAR 8.6 (scFv, MMAE-PAB-Cit-Val-dPEG9 (from compound 86) on lysine residues; DAR 9.6 by AAA, 7.5 by LC-MS, average 8.6, also called TCT1067-MMAE ADC1) scFv: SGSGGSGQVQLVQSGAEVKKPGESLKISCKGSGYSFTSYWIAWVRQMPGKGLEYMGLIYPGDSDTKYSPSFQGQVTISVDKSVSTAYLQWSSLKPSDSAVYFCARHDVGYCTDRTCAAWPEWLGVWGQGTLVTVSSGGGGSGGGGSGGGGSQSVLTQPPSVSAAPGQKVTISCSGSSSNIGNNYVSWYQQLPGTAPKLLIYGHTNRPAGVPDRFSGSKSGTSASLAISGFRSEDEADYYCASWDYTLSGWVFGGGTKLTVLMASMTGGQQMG , no commentary.
2.23e-05
